Attribution: paper PMC4336329

target.system: human ether-à-go-go-related gene (hERG) potassium channel (human, UniProt Q12809)
Sequence (Q12809 whole entry, looked up): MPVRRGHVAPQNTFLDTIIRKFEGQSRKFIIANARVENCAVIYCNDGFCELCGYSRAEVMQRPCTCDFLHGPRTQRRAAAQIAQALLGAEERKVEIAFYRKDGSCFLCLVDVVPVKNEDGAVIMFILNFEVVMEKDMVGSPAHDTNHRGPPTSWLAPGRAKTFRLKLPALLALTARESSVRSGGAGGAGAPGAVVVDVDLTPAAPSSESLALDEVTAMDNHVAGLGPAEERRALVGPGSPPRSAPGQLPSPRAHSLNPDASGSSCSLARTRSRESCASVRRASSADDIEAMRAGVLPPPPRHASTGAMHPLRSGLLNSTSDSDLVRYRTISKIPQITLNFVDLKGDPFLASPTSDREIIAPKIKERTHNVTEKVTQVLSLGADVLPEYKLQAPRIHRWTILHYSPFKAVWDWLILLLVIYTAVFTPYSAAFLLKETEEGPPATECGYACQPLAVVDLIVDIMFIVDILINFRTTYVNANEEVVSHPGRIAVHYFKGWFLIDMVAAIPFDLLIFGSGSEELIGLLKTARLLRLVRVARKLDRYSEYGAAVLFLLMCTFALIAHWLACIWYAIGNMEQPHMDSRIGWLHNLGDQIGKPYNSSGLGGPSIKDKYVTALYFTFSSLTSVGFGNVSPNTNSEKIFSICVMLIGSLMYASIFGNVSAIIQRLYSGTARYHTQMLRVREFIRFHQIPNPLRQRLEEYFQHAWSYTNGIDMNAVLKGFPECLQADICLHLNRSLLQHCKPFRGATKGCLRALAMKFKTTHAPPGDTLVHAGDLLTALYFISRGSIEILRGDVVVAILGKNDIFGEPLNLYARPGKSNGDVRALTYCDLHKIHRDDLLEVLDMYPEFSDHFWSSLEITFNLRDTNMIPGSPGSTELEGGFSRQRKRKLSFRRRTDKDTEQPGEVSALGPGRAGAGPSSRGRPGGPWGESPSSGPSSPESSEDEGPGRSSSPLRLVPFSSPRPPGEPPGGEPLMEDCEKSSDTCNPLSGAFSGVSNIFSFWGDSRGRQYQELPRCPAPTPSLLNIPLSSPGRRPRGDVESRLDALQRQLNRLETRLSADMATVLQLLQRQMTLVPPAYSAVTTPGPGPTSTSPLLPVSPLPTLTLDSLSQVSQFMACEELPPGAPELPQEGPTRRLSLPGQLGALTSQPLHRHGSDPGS
procedure.details: primary screen, population patch clamp on CHO cells stably expressing hERG; higher = less effect of the substance
The whole screen tested about 310,000 compounds, of which about 14,000 (4.5%) showed an effect of 50% or more. The effect is printed as a negative number. The sample holds strong results, similar compounds and a random draw of the others, so the mix is not that of the screen.
Each entry below lists one item and its recorded hERG current change (%, negative = inhibition) at 10uM value.
experimental.readout: hERG current change (%, negative = inhibition) at 10uM

>  <compound>
CSc1ncc(CN2CCC(C(=O)Nc3cccc(-c4cscn4)c3)CC2)cn1

>  <target.system>
human ether-à-go-go-related gene (hERG) potassium channel (human, UniProt Q12809)

>  <endpoint.value>
-35.7%

$$$$
>  <compound>
O=C(CN1C(=O)S/C(=C\c2ccccc2)C1=O)Nc1cc([N+](=O)[O-])ccc1O

>  <target.system>
human ether-à-go-go-related gene (hERG) potassium channel (human, UniProt Q12809)

>  <endpoint.value>
6.11%

$$$$
>  <compound>
CCOc1ccc(/C=C(\C)C(=O)c2c(C)cc(C)[nH]c2=O)cc1

>  <target.system>
human ether-à-go-go-related gene (hERG) potassium channel (human, UniProt Q12809)

>  <endpoint.value>
5.24%

$$$$
>  <compound>
O=C(NCC(c1cccs1)N1CCc2ccccc21)c1ccccc1 (centres unmarked)

>  <target.system>
human ether-à-go-go-related gene (hERG) potassium channel (human, UniProt Q12809)

>  <endpoint.value>
15.3%

$$$$
>  <compound>
O=C(CCCOc1ccc(Cl)cc1)Nc1cccc(C(=O)O)c1

>  <target.system>
human ether-à-go-go-related gene (hERG) potassium channel (human, UniProt Q12809)

>  <endpoint.value>
13%

$$$$
>  <compound>
O=C(Nc1ccc(-n2cccn2)cc1)C1CCN(Cc2ccsc2)CC1

>  <target.system>
human ether-à-go-go-related gene (hERG) potassium channel (human, UniProt Q12809)

>  <endpoint.value>
-81.1%

$$$$
>  <compound>
O=C(COc1coc(CN2CCN(c3ccccc3F)CC2)cc1=O)NC1CCCCC1

>  <target.system>
human ether-à-go-go-related gene (hERG) potassium channel (human, UniProt Q12809)

>  <endpoint.value>
-21.6%

$$$$
>  <compound>
CC1CCN(C(=O)N2c3ccccc3Sc3ccccc32)CC1

>  <target.system>
human ether-à-go-go-related gene (hERG) potassium channel (human, UniProt Q12809)

>  <endpoint.value>
-5.69%

$$$$
>  <compound>
NS(=O)(=O)c1ccc(NC(NC(=O)c2cccnc2)C(Cl)(Cl)Cl)cc1 (centres unmarked)

>  <target.system>
human ether-à-go-go-related gene (hERG) potassium channel (human, UniProt Q12809)

>  <endpoint.value>
6.08%

$$$$
>  <compound>
CCCOC(=O)c1ccc(NC(=O)c2ccccc2OC)cc1

>  <target.system>
human ether-à-go-go-related gene (hERG) potassium channel (human, UniProt Q12809)

>  <endpoint.value>
4.44%

$$$$
>  <compound>
CCN(CC)CC(O)CN1c2ccccc2Sc2ccccc21 (centres unmarked)

>  <target.system>
human ether-à-go-go-related gene (hERG) potassium channel (human, UniProt Q12809)

>  <endpoint.value>
-25%

$$$$
>  <compound>
O=S(=O)(Nc1cccnc1)c1cccc(C(F)(F)F)c1

>  <target.system>
human ether-à-go-go-related gene (hERG) potassium channel (human, UniProt Q12809)

>  <endpoint.value>
-2.26%

$$$$
>  <compound>
COc1ccccc1NC(=O)CSc1nnc(C2CCCCC2)n1N

>  <target.system>
human ether-à-go-go-related gene (hERG) potassium channel (human, UniProt Q12809)

>  <endpoint.value>
5.54%

$$$$
>  <compound>
CCCCC[C@H](O)/C=C/C1=C(CCCCCCC(=O)O)C(=O)CC1

>  <target.system>
human ether-à-go-go-related gene (hERG) potassium channel (human, UniProt Q12809)

>  <endpoint.value>
17.9%

$$$$
>  <compound>
COc1ccc(-c2cc(C(=O)Nc3cccnc3Cl)no2)cc1OC

>  <target.system>
human ether-à-go-go-related gene (hERG) potassium channel (human, UniProt Q12809)

>  <endpoint.value>
16.6%

$$$$
>  <compound>
CCN1C(=NCC(C)C)N[C@@H](CCc2ccccc2)[C@H](C(=O)NCC(C)C)[C@H]1C

>  <target.system>
human ether-à-go-go-related gene (hERG) potassium channel (human, UniProt Q12809)

>  <endpoint.value>
-16.2%

$$$$
>  <compound>
O=C(CC(Cc1ccccc1)C(=O)O)Nc1ccc(F)cc1 (centres unmarked)

>  <target.system>
human ether-à-go-go-related gene (hERG) potassium channel (human, UniProt Q12809)

>  <endpoint.value>
10.4%

$$$$
>  <compound>
CCOC(=O)c1ccc(N=c2sc(C(=O)OC)cc(=O)n2Cc2ccco2)cc1

>  <target.system>
human ether-à-go-go-related gene (hERG) potassium channel (human, UniProt Q12809)

>  <endpoint.value>
13.7%

$$$$
>  <compound>
NC(=O)C1(N2CCCCC2)CCN(C2CC(=O)N(Cc3ccc(N4CCCC4=O)cc3)C2=O)CC1 (centres unmarked)

>  <target.system>
human ether-à-go-go-related gene (hERG) potassium channel (human, UniProt Q12809)

>  <endpoint.value>
5.32%

$$$$
>  <compound>
CCCCOc1ccc(/C=C/C(=O)OCC(=O)N2CC(=O)Nc3ccccc32)cc1OCC

>  <target.system>
human ether-à-go-go-related gene (hERG) potassium channel (human, UniProt Q12809)

>  <endpoint.value>
21.2%

$$$$

----------
target.system: human ether-à-go-go-related gene (hERG) potassium channel (human)
procedure.details: primary screen, population patch clamp on CHO cells stably expressing hERG; higher = less effect of the substance
In all, about 310,000 compounds went through this assay and about 14,000 (4.5%) showed an effect of 50% or more. Effects have a minus sign here. For the sample, strong results were picked, then their nearest neighbours and some compounds at random.
Form field: hERG current change (%, negative = inhibition) at 10uM (one value per entry).
experimental.readout: hERG current change (%, negative = inhibition) at 10uM (%)

>  <compound>
O=C(c1cn[nH]c1)c1cc(F)ccc1O

>  <target.system>
human ether-à-go-go-related gene (hERG) potassium channel (human)

>  <endpoint.value>
-2.62

$$$$
>  <compound>
N#Cc1c(SCC(=O)N2CCCCC2)nsc1SCC(=O)N1CCCCC1

>  <target.system>
human ether-à-go-go-related gene (hERG) potassium channel (human)

>  <endpoint.value>
16.5

$$$$
>  <compound>
COc1ccc(OCCn2c(=O)sc3ccccc32)cc1

>  <target.system>
human ether-à-go-go-related gene (hERG) potassium channel (human)

>  <endpoint.value>
-8.81

$$$$
>  <compound>
Cc1ccc(Nc2ncc(C(=O)NCCCN3CCN(C)CC3)c3ccccc23)cc1Cl

>  <target.system>
human ether-à-go-go-related gene (hERG) potassium channel (human)

>  <endpoint.value>
-61.1

$$$$
>  <compound>
N#Cc1cn(CC(=O)N2CCCC2)c2ccccc12

>  <target.system>
human ether-à-go-go-related gene (hERG) potassium channel (human)

>  <endpoint.value>
8.6

$$$$
>  <compound>
O=C(NC1(Cc2ccccc2)CCN(CCc2cccs2)C1=O)c1ccccc1 (centres unmarked)

>  <target.system>
human ether-à-go-go-related gene (hERG) potassium channel (human)

>  <endpoint.value>
-1.81

$$$$
>  <compound>
CCn1c(COc2ccc(=O)n(-c3ccccc3)n2)nnc1SCC(=O)OC

>  <target.system>
human ether-à-go-go-related gene (hERG) potassium channel (human)

>  <endpoint.value>
9.02

$$$$
>  <compound>
COc1ccc(Nc2cc(C(=O)NCCCN3CCN(C)CC3)c3ccccc3n2)cc1

>  <target.system>
human ether-à-go-go-related gene (hERG) potassium channel (human)

>  <endpoint.value>
2.72

$$$$
>  <compound>
CC1CC(C)CN(C(=O)CCC(=O)Nc2nnc(C3CCCCC3)s2)C1 (centres unmarked)

>  <target.system>
human ether-à-go-go-related gene (hERG) potassium channel (human)

>  <endpoint.value>
14.2

$$$$
>  <compound>
CCn1c(CNC(=O)c2ccc(OC)c(OC)c2)nnc1SCC(=O)c1ccc(OC)cc1

>  <target.system>
human ether-à-go-go-related gene (hERG) potassium channel (human)

>  <endpoint.value>
-0.747

$$$$
>  <compound>
CCn1c(COc2ccc(=O)n(-c3ccccc3)n2)nnc1SCc1ccc(OC)cc1

>  <target.system>
human ether-à-go-go-related gene (hERG) potassium channel (human)

>  <endpoint.value>
-67.7

$$$$
>  <compound>
C=CCc1ccc(OCC(O)CN2CCC(Cc3ccccc3)CC2)c(OC)c1.Cl (centres unmarked)

>  <target.system>
human ether-à-go-go-related gene (hERG) potassium channel (human)

>  <endpoint.value>
-77.5

$$$$
>  <compound>
Cc1cccc(-c2nc3c(c(SCC(=O)N(C)C)n2)CCCC3)c1

>  <target.system>
human ether-à-go-go-related gene (hERG) potassium channel (human)

>  <endpoint.value>
-21.5

$$$$
>  <compound>
COc1cc(COCC(O)CN2CCCCC2C)cc(OC)c1OC.Cl (centres unmarked)

>  <target.system>
human ether-à-go-go-related gene (hERG) potassium channel (human)

>  <endpoint.value>
20.6

$$$$
>  <compound>
CCn1c(COc2ccc(=O)n(-c3ccccc3)n2)nnc1SCc1ccccc1C

>  <target.system>
human ether-à-go-go-related gene (hERG) potassium channel (human)

>  <endpoint.value>
-65.4

$$$$
>  <compound>
COc1ccc(NC(=O)C2CCCN(S(=O)(=O)c3ccc4c(c3)CCCN4C(C)=O)C2)cc1 (centres unmarked)

>  <target.system>
human ether-à-go-go-related gene (hERG) potassium channel (human)

>  <endpoint.value>
9.31

$$$$
>  <compound>
CCn1c(COc2ccc(=O)n(-c3ccccc3)n2)nnc1SCc1ccccc1

>  <target.system>
human ether-à-go-go-related gene (hERG) potassium channel (human);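 note: peak tail current of the secondary pulse compared with the same well before compound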

>  <endpoint.value>
-48.2

$$$$
>  <compound>
CCn1c(COc2ccc(=O)n(-c3ccccc3)n2)nnc1SCc1cccc(OC)c1

>  <target.system>
human ether-à-go-go-related gene (hERG) potassium channel (human);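 note: peak tail current of the secondary pulse compared with the same well before compound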

>  <endpoint.value>
-39.1

$$$$
>  <compound>
C=COCCn1c(=N)n(CCC)c2ccccc21.Cl

>  <target.system>
human ether-à-go-go-related gene (hERG) potassium channel (human);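 note: peak tail current of the secondary pulse compared with the same well before compound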

>  <endpoint.value>
-28.3

$$$$
>  <compound>
COc1ccc(Nc2cc(C(=O)NCCCN3CCN(C)CC3)c3ccccc3n2)cc1OC

>  <target.system>
human ether-à-go-go-related gene (hERG) potassium channel (human);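 note: peak tail current of the secondary pulse compared with the same well before compound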

>  <endpoint.value>
1.49

$$$$
